target: T1, Recombinant human LILRB2 protein (ELISA antigen) (human, UniProt Q8N423 22-460); test: ELISA, immobilized LILRB2-His; conditioned media of transient transfections
T1 construct: also called LILRB2-His; recombinant LILRB2
T1 sequence (Q8N423 other isoform, or with tags, fused parts or gaps limits assumed): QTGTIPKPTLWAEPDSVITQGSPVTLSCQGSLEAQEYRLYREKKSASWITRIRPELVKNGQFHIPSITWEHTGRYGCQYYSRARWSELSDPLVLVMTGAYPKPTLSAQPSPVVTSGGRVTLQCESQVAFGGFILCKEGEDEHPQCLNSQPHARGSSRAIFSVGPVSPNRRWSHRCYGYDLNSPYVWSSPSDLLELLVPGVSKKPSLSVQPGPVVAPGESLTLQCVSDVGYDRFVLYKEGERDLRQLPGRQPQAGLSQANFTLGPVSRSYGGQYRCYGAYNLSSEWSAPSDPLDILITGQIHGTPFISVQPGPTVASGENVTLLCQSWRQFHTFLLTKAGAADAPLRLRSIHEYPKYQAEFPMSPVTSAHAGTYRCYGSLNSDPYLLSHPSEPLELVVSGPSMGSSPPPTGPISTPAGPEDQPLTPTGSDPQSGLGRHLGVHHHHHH
parameterMeasured: EC50 (ng/mL)
Use ng/mL as the unit, but write only the number.

See these solved cases before continuing.
binder	readingUnit	EC50
B2H4-35 (antibody, V domains shown, Humanized variant, human IgG4 / kappa) VH: QVQLVESGGRVVQPGTPLRLSCAASGFSLSTYAMSWVRQAPGKGLEWVAWIYNDGSTYYAAWAKGRFTISRDTSKNTLYLQTNSLKPDDTAVYYCAREGDYIGYFNIWGQGTLVTVSS VL: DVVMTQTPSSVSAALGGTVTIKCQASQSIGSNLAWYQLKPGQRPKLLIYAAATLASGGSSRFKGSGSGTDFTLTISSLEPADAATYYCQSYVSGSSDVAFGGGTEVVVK	ng/mL	4.67
B2H4-11 (antibody, V domains shown, Humanized variant, human IgG4 / kappa) VH: QVQLEESGGRVVQPGRSLRLSCAASGFSLSTYAMSWVRQAPGKGLEWIGWIYNDGSTYYAAWAKGRFTISKDTSKTTVFLQMNSLKPDDTATYFCAREGDYIGYFNIWGQGTLVTVSS VL: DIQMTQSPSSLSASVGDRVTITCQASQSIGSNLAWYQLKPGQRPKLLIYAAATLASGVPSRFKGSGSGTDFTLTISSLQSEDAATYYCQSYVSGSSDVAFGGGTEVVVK	ng/mL	4.2

I have this binder here, B2H4-13 (antibody, V domains shown, Humanized variant, human IgG4 / kappa) VH: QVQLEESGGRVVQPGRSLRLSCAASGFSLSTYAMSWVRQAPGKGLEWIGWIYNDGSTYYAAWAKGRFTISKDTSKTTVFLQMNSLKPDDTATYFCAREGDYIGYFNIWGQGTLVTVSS VL: DIEMTQSPSSVSASVGDRVTLTCQASQSIGSNLAWYQQKPGQAPKLLIYAAATLASGVPSRFKGSGSGTDFTLTISSLQPEDFATYYCQSYVSGSSDVAFGGGTEVVVK , and I need its recorded EC50. 4.5

From: patent US20240132589A1
